Where do the numbers come from? From ChEMBL document CHEMBL1201862.

- System: Hs-578T
- assay name: NCI tumour cell line growth inhibition, 48 h
Activity calls are given as the source filed them. Rule as the data show it: active = GI50 up to about 1.1 µM and inactive = higher.
measurement label: GI50

compound=COc1ccc(CSC2=C(C#N)C(=O)NC3(CCCCC3)S2)cc1 measurement_label=GI50 result="41.9 µM (inactive)"
compound="Nc1ccc(C2NC(=O)Cc3c2ccc2ccccc32)cc1 (centres undefined)" measurement_label=GI50 result="46.5 µM (inactive)"
compound=CCCCCCOc1ccc(C(=O)N(C)O)cc1 measurement_label=GI50 result="65.2 µM (inactive)"
compound="C=C1C(=O)C23C(O)C1CC[C@H]2C12CCCC(C)(COC(C)=O)[C@H]1[C@H](O)[C@]3(O)OC2 (some centres undefined)" measurement_label=GI50 result="2.77 µM (inactive)"
